B1: PRKX (parent)
chain: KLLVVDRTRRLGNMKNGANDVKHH

- Variants of: B1
- TEST PROTOCOL: protein stability index of a GFP-peptide fusion (GPS, HEK-293T) (PSI 1-6); higher = more stable;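 also: lentivirally expressed fusions sorted by FACS into six bins by GFP to DsRed ratio, PSI derived from sequencing read proportions per bin multiplied by bin number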
- MEASUREMENT CONDITIONS: c terminus: a fixed tail appended
// -1 strictly below 3 in protein stability index; 1 otherwise

Lookup: Check if protein stability index >= 3 (inclusive). Item: L11C
Found: -1

Lookup: Decide: is the reported value of protein stability index for T8F equal to or greater than 3?
Found: -1

Lookup: Check this variant for protein stability index at or above 3: V4T
Found: 1

Lookup: Given the entry K1I , answer whether its protein stability index meets or surpasses 3.
Found: -1

Lookup: Reported protein stability index reaches at least 3 for N19E ?
Found: 1

Lookup: Check the entry V4W : does protein stability index equal or exceed 3?
Found: -1

Lookup: Reported protein stability index reaches at least 3 for N16H ?
Found: -1

Lookup: # bool: protein stability index of G12M >= 3
Found: -1

Lookup: Given the entry L11Q , answer whether its protein stability index meets or surpasses 3.
Found: 1

Lookup: Does H24M have a reported protein stability index of at least 3?
Found: -1

Lookup: Decide: protein stability index of R9G >= 3?
Found: 1
